The reported measurements were obtained from patent US10357485B1.

- Tested on: JURKAT cells
- ASSAY_OVERVIEW: MTT cytotoxicity assay on JURKAT cells
- Format: cell-based, human
- MEASUREMENT_PARAMETERS: Homo sapiens; JURKAT cells, MTT, 48 h; read-out: IC50 (half maximal inhibitory concentration)
- Procedure: As described in detail herein, a cytotoxicity assay of compound 4 was performed on four human cancer cell lines—JURKAT, NCI-H460, HCT116 and MCF7—with camptothecin (CPT) as a positive control. The inhibitory effects of compound 4 on JURKAT, NCI-H460, HCT116 and MCF7 cancer cells were determined by an MTT (3-[4,5-dimethylthiazol-2-yl]-2,5 diphenyltetrazolium bromide) assay. […] Adherent cells were trypsinized, counted and seeded in 96-well plates for viability studies. […]
MEASUREMENT_LABEL: pIC50
Give only the number. pIC50 is defined as minus log10 of concentration in molar units.

Query: Notebook: pull reported pIC50 for JURKAT cells, entry O=C1/C(=C/c2ccc(Br)cc2)CN2CC13C(c1ccc(Br)cc1)C1Cc4ccccc4CN1C31c3cccc4cccc(c34)[C@@]21O (stereo partly shown)
Reply: 4.99
